# target or system: T1, hK1 (human tissue kallikrein 1), recombinant (human, UniProt P06870 25-262)
# T1 construct: Expressed in P. pastoris from KLK1 cDNA and purified; enzymatically active; also called KLK1; Recombinant (Pichia) Kallikrein
# protocol: SPR
result type: Kd (nM)
Give bare numbers, in nM.

Some entries whose results are on file:
* M0106-D06 (Fab, V domains shown) VH: EVQLLESGGGLVQPGGSLRLSCAASGFTFSYYLMGWVRQAPGKGLEWVSSIGPSGGTTKYADSVKGRFTISRDNSKNTLYLQMNSLRAEDTAVYYCARRGLGAAFDYWGQGTLVTVSS VL: DIQMTQSPSSVSASVGDRVTITCRASQGISSWLAWYQQKPGKAPKLLIYAASSLQSGVPSRFSGSGSGTDFTLTISSLQPEDFATYYCQQANSFPYTFGQGTKLEIKR | 123
* M0094-E08 (Fab, V domains shown) VH: EVQLLESGGGLVQPGGSLRLSCAASGFTFSFYAMVWVRQAPGKGLEWVSYISPSGGATWYADSVKGRFTISRDNSKNTLYLQMNSLRAEDTAVYYCAKPSRPRYYYDSSGYYSSAFDIWGQGTMVTVSS VL: AQSVLTQPASVSGSPGQSITISCTGTSSDVGAYNYVSWYQQHPGKVPELMIYDVSNRPSGVSHRFSGSKSGNTASLTISGLQAEDDADYYCSSFTSRKTWVFGTGTKVTVLG | 3.34
* M0108-C10 (Fab, V domains shown) VH: EVQLLESGGGLVQPGGSLRLSCAASGFTFSRYVMAWVRQAPGKGLEWVSVIRPSGGKTLYADSVKGRFTISRDNSKNTLYLQMNSLRAEDTAVYYCARVAGRVGVPATKKNWFDPWGQGTLVTVSS VL: AQSVLTQPASVSGSPGQSITISCTGTSSDVGGYNYVSWYQQHPGQPPKLIIYEVSNRASGVSNRFSGSKFGNTASLTISGLQSEDEADYHCSSYTSSTTLLFGGGTRLTVLG | 12.2
* M0131-B05 (Fab, V domains shown) VH: EVQLLESGGGLVQPGGSLRLSCAASGFTFSHYVMSWVRQAPGKGLEWVSYIYPSGGKTHYADSVKGRFTISRDNSKNTLYLQMNSLRAEDTAVYYCARVGVWYGMDVWGQGTTVTVSS VL: AQYELTQPASVSGSPGQSITISCTGTSSDIGAYNYVSWYQQHPGKAPKLMIYDVSNRPSGVSNRFSGSKSGNTASLTISGLQAEDEADYYCSSYRSSSLMFGGGTKLTVLG | 0.46
* M0135-C11 (Fab, V domains shown) VH: EVQLLESGGGLVQPGGSLRLSCAASGFTFSNYSMQWVRQAPGKGLEWVSGIRPSGGSTRYADSVKGRFTISRDNSKNTLYLQMNSLRAEDTAVYYCAVSTGGYYYGMDVWGQGTTVTVSS VL: DIQMTQSPSSVSASVGDRVTITCRASQGISSWLAWYQQKPGKAPKLLIYAASSLQSGVPSRFSGSGSGTDFTLTISSLQPEDFATYYCQQANSFPSLTFGGGTKVEIKR | 6.85
* M0122-D01 (Fab, V domains shown) VH: EVQLLESGGGLVQPGGSLRLSCAASGFTFSHYIMHWVRQAPGKGLEWVSGIYPSGGSTKYADSVKGRFTISRDNSKNTLYLQMNSLRAEDTAVYYCARALVGALDYWGQGTLVTVSS VL: DIQMTQSPSSVSASVGDRVTITCRASQDIRTWLAWYQQKSGKAPKLLIYSSSSLQSGISSRFSGSGSGTDFTLTISNLQPEDSAIYYCQQATTFPWTFGQGTKVEIKR | 20.8

For every item below, please supply its Kd.
1. M0106-E12 (Fab, V domains shown) VH: EVQLLESGGGLVQPGGSLRLSCAASGFTFSHYNMTWVRQAPGKGLEWVSSIWPSGGATRYADSVKGRFTISRDNSKNTLYLQMNSLRAEDTAVYYCARTSRFYGMDVWGQGTTVTVSS VL: DIQMTQSPGTLSLSPGERATLSCRPSQSVYSNYLAWYQQKPGQAPRLLIYGASTRATGIPDRFSGSASGTDFTLTISRLEPEDFAVYYCQQYGNSYTFGPGTKVDIKR
2. M0094-F03 (Fab, V domains shown) VH: EVQLLESGGGLVQPGGSLRLSCAASGFTFSWYQMSWVRQAPGKGLEWVSSIYPSGGATKYADSVKGRFTISRDNSKNTLYLQMNSLRAEDTAMYYCARMGLHHSFDYWGQGTLVTVSS VL: DIQMTQSPGTLSLSLGETATLSCRASQTVGGSYLAWYRQKPGQAPSLLIYAASNRAPGIPDRFSGSGSGTDFTLTISSLQSEDFAVYYCQQYGSSMYTFGQGTILEIKR
3. M0112-C02 (Fab, V domains shown) VH: EVQLLESGGGLVQPGGSLRLSCAASGFTFSNYYMLWVRQAPGKGLEWVSYIRSSGGSTRYADSVKGRFTISRDNSKNTLYLQMNSLRAEDTAVYYCAKPTVDGAFDYWGQGTLVTVSS VL: DIQMTQSPGTLSLSPGDRATLSCRASQSVSSNYLAWYQQKPGQAPRLLIYGASSRATGIPDRFSGSGSGTDFTLTISRLEPEDFGVYYCQQFGSSLFTFGPGTKVNIKR
4. M0116-E08 (Fab, V domains shown) VH: EVQLLESGGGLVQPGGSLRLSCAASGFTFSRYPMIWVRQAPGKGLEWVSVIYPSGGMTKYADSVKGRFTISRDNSKNTLYLQMNSLRAEDTAVYYCARVGSYGSLGYWGQGTLVTVSS VL: DIQMTQSPSSLSASVGDRVTITCLASQSISSYLNWYQQKPGKAPKLLIYDASSLESGVPSRFSGSGSGTDFTLTISSLQPEDFAIYYCQQFNGYPPITFGQGTRLEIKR

[19.9, 16.7, 10.9, 72.7]

Source of measurements: patent US7329737
